- Tested on: Wheat and Barley and test plant species
- Assay comment: Post-emergent Test III, herbicidal activity in wheat and barley (Table 17; visual injury, GR20/GR50/GR80/GR90)
- Type: in vivo
- Experimental parameters: KCHSC; 35 g ai/ha; post-emergent; 21 d
Reported endpoint: Visual Growth Reduction (%) 21 Days After Application, KCHSC

| Compound string | System | Obs value |
| --- | --- | --- |
| Nc1c(F)c(-c2ccc3cc[nH]c3c2F)nc(C(=O)O)c1Cl | Wheat and Barley and test plant species | B (85-94) |
| COC(=O)c1nc(-c2ccc3cc[nH]c3c2F)c(F)c(N)c1Cl | Wheat and Barley and test plant species | B (85-94) |

---

- System: Key Grass and Sedge Weeds as well as Grass Crops
- Assay comment: Post-emergent Test II herbicidal activity (Table 16)
- Type: in vivo
- Experimental parameters: Triticum aestivum, post-emergence, 336 h, wheat, spring (Triticum aestivum), 140 g ai/ha, 14 d, read-out: Visual Growth Reduction (%) 14 Days After Application, TRZAS
Measured pest or weed control at 140 g/ha accompanies every entry in the list below.

| Compound string | pest or weed control at 140 g/ha |
| --- | --- |
| COC(=O)c1nc(-c2cccc3occc23)c(F)c(N)c1Cl | 0 to 29% |
| COc1c(N)nc(-c2cc3[nH]ccc3cc2F)nc1C(=O)O | 0 to 29% |
| Nc1c(F)c(-c2ccc3cc[nH]c3c2F)nc(C(=O)O)c1Cl | 60 to 74% |
| Nc1c(F)c(-c2ccc3occc3c2)nc(C(=O)O)c1Cl | 45 to 59% |
| COc1c(C(=O)O)nc(-c2ccc3cc[nH]c3c2F)c(F)c1N | 60 to 74% |

---

- Tested on: Key Broadleaf Weed and Crop Species
- Assay comment: Post-emergent Test II herbicidal activity (Table 15)
- Assay type: in vivo
- Experimental parameters: Abutilon theophrasti, post-emergence, 336 h, velvetleaf (Abutilon theophrasti), 70 g ai/ha, 14 d, read-out: Visual Growth Reduction (%) 14 Days After Application, ABUTH
- Text: Post-emergent Test II: Seeds or nutlets of the desired test plant species were planted in Sun Gro Metro-Mix® 360 planting mixture, which typically has a pH of 6.0 to 6.8 and an organic matter content of about 30 percent, in plastic pots with a surface area of 64 square centimeters. When required to ensure good germination and healthy plants, a fungicide treatment and/or other chemical or physical treatment was applied. […]
Measured pest or weed control at 70 g/ha accompanies every entry in the list below.

| Compound string | pest or weed control at 70 g/ha |
| --- | --- |
| COC(=O)c1nc(-c2cccc3cc[nH]c23)c(F)c(N)c1Cl | 0 to 29% |
| COC(=O)c1nc(-c2ccc3cc[nH]c3c2F)c(F)c(N)c1OC | 60 to 74% |
| COc1c(C(=O)O)nc(-c2ccc3cc[nH]c3c2F)c(F)c1N | 45 to 59% |
| Nc1cc(-c2ccc3cc[nH]c3c2F)nc(C(=O)O)c1Cl | 95 to 100% |
| COC(=O)c1nc(-c2ccc(Cl)c3ccoc23)nc(N)c1OC | 60 to 74% |
| COC(=O)c1nc(-c2ccc3ccsc3c2)c(C)c(N)c1Cl | 75 to 84% |
| COc1c(N)nc(-c2cc3[nH]ccc3cc2F)nc1C(=O)O | 0 to 29% |
| COC(=O)c1nc(-c2cc3sccc3cc2F)nc(N)c1OC | 0 to 29% |
| COC(=O)c1nc(-c2ccc3c(cnn3C)c2)c(F)c(N)c1Cl | 0 to 29% |
